Reference for the values: PubChem BioAssay

inhibition values, listed per item
assay_remarks: inhibitors of TNFa-induced NFkB p65 translocation, primary screen, imaging, HUVEC, MLSMR starter and 10KST1 sets (AID 438);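 also: compound added about 3h40 before a 20 min TNFalpha stimulation; signal is the nuclear over cytoplasmic p65 intensity ratio per well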
setup_conditions: HUVEC TNFa-induced p65 nuclear translocation; at 2 µM, stronger effect = higher value, 0% TNFa-plus-vehicle, 100% no-TNFa wells

{"columns": ["compound", "inhibition, %"],
 "data": [
  ["CCc1ccc(C(=O)NC2CCCCC2)s1", -1.2],
  ["CCOC(=O)c1cnc(-n2nc(C)cc2C)nc1Nc1ccc(N(C)C)cc1", -15.5],
  ["COCCN(C(=O)Cn1nnc2ccccc21)C(C(=O)NC1CCCC1)c1cc(OC)ccc1OC (stereo not drawn)", 9],
  ["O=C(Cn1c(NCCO)nc2ccccc21)c1ccccc1", 4.9],
  ["O=C(O)c1ccc(CSc2ncn[nH]2)cc1", -2.9],
  ["CC(C)C(c1nnnn1C1CCCC1)N1CCN(C(=O)c2ccco2)CC1 (stereo not drawn)", 9.7],
  ["CC(=O)c1c(O)cc(C)n(Nc2nc(C)cc(C)n2)c1=O", -12.1],
  ["O=C(Nc1nnc(SCC(=O)N2CCCCC2)s1)C1CCCCC1", -3.4],
  ["Cc1sc2nc3n(c(=O)c2c1C)NC(=O)CC3", -7.3],
  ["O=C1CC(c2ccc(S(=O)(=O)N3CCN(c4ccccc4)CC3)cc2)CN1 (stereo not drawn)", 0.3],
  ["CCCCCC1NC(=O)NC1CCCCCC(=O)O (stereo not drawn)", 0],
  ["O=C(Nc1ccc2c(c1)OCCO2)NC1CCCCC1", 0.5],
  ["O=C(c1cccs1)N1CCc2ccccc21", -3.8]
]}
